These data points were gathered from the SangsterLogP compilation.

Entries and their logP values follow.
Reply briefly: the number, and no unit.

Some solved entries appear below for comparison.
// lookup logP for CCCCCCC(C)(C)c1ccc(C2CC(O)CCC2CCCCO)c(O)c1 (stereo unspecified)
6.68

// lookup logP for CC(=O)Oc1cc(OC(C)CCCc2ccccc2)cc2c1C1CC(O)CCC1C(C)N2C (stereo unspecified)
5.72

// lookup logP for CCCCCCC(C)(C)c1cc(O)c2c(c1)OC(C)(C)C1CCC(CO)=CC21 (stereo unspecified)
7.83

// lookup logP for `CCCCCC(C)(C)c1ccc([C@H]2CCC[C@@H](O)C2)c(O)c1`
5.97

// lookup logP for `CCCCCCC(C)(C)c1ccc([C@@H]2C[C@H](O)C[C@@H]3CC[C@H](CO)C[C@H]32)c(O)c1`
6.13

---
// lookup logP for CCCCCCC(C)(C)c1cc(O)c2c(c1)OC(C)(C)C1CC=C(CO)CC21 (stereo unspecified)
7.44

// lookup logP for `CC(=O)Oc1cc(O[C@H](C)CCCc2ccccc2)cc2c1[C@@H]1C[C@H](O)CC[C@H]1[C@H](C)N2`
5.7

// lookup logP for C=C1CCC2C(C1)c1c(OC)cc(CCC)cc1OC2(C)C (stereo unspecified)
6.26

// lookup logP for CCCCCc1cc(O)c2c(c1)OC(C)(C)C1CC=C(C)CC21 (stereo unspecified)
7.41

// lookup logP for CCCCCCC(C)(C)c1ccc(C2CC(O)CCC2C)c(O)c1 (stereo unspecified)
7.49

###

Each entry falls in a class defined on logP; the bands are bottom range (below 5), center range (5 to below 7), top range (7 or more)

Exercise: read the entry `CCCCCCCCC(C)(C)c1ccc([C@H]2CCC[C@@H](O)C2)c(O)c1` and state which class it falls under.
top range

Exercise: read the entry `CCCCCc1cc(O)c2c(c1)OC(C)(C)[C@@H]1CCC(CO)=C[C@@H]21` and state which class it falls under.
center range

Exercise: read the entry CCCCC(C)(C)c1ccc(C2CCCC(O)C2)c(O)c1 (stereo not drawn) and state which class it falls under.
center range

Exercise: read the entry CCCCCc1cc(OCCCCCN2CC(=O)c3ccccc3C2=O)c2c(c1)OC(C)(C)C1CC=C(C)CC21 (stereo not drawn) and state which class it falls under.
top range

Exercise: read the entry `CCCCCc1cc(O)c2c(c1)OC(C)(C)[C@@H]1CC=C(C(=O)O)C[C@@H]21` and state which class it falls under.
bottom range

---
Exercise: read the entry `CCCCCc1cc(OC)c2c(c1)OC(C)(C)[C@@H]1CC=C(C)C[C@@H]21` and state which class it falls under.
top range

Exercise: read the entry `CCCCCc1cc(O)c2c(c1)OC(C)(C)c1ccc(C)cc1-2` and state which class it falls under.
center range

Exercise: read the entry `C=C(C)[C@@H]1CCC(C)=C[C@H]1c1c(O)cc(CCCCC)cc1O` and state which class it falls under.
center range

Exercise: read the entry CCCCCc1cc(OCc2ccc(-c3ccccc3)cc2)c2c(c1)OC(C)(C)C1CC=C(C)CC21 (stereo not drawn) and state which class it falls under.
top range

Exercise: read the entry CC(C)(C)c1ccc(C2CCCC(O)C2)c(O)c1 (stereo not drawn) and state which class it falls under.
bottom range

Exercise: read the entry CCCC(C)(C)c1ccc(C2CCCC(O)C2)c(O)c1 (stereo not drawn) and state which class it falls under.
bottom range

Exercise: read the entry CC1=CCC2C(C1)c1c(O)cc(NS(C)(=O)=O)cc1OC2(C)C (stereo not drawn) and state which class it falls under.
bottom range

###

Entries and their logP values follow.

Some solved entries appear below for comparison.
// lookup logP for `C=C1C[C@H]2c3c(O)cc(CCCCC)cc3OC(C)(C)[C@@H]2C[C@H]1O`
4.24

// lookup logP for CCCCCCC(C)(C)c1ccc(C2CCCC(O)C2)c(O)c1 (stereo unspecified)
6.68

// lookup logP for CCCCCC(C)C(C)c1cc(O)c2c(c1)OC(C)(C)C1=C2CC(C)CC1 (stereo unspecified)
8.3

// lookup logP for CCCCCCCCCCC(C)(C)c1ccc(C2CCCC(O)C2)c(O)c1 (stereo unspecified)
8.42

// lookup logP for C=C1CCC2C(C1)c1c(OC)cc(CCCCC)cc1OC2(C)C (stereo unspecified)
7.62

---
// lookup logP for CCC(C)(C)c1ccc(C2CCCC(O)C2)c(O)c1 (stereo unspecified)
4.32

// lookup logP for CCCCCCC(C)(C)c1ccc(C2CC(O)CCC2CCCO)c(O)c1 (stereo unspecified)
6.13

// lookup logP for CCCCCCC(C)(C)c1cc(O)c2c(c1)OC(C)(C)C1CCC(C=O)=CC21 (stereo unspecified)
8.03

###

Entries and their logP values follow.
Reply briefly: the number, and no unit.

Some solved entries appear below for comparison.
// lookup logP for CCCCCCC(C)(C)c1cc(O)c2c(c1)OC(C)(C)C1CC=C(C)CC21 (stereo not drawn)
9.96

// lookup logP for `C=C1CC[C@@H]2[C@@H](C1)c1c(OCc3ccc(-c4ccccc4)cc3)cc(CCCCC)cc1OC2(C)C`
11.3

---
// lookup logP for CCCCCc1cc(OCCCCN)c2c(c1)OC(C)(C)C1CC=C(C)CC21 (stereo not drawn)
8.38
